experiment: Pharmacokinetics of single oral doses of nirogacestat dihydrobromide; assay type: in vivo, human; conditions: human, in vivo, po, 100 mg, COHORT 2: 100 mg, Period 1, read-out: AUClast, Geometric Mean
Where a name gives a salt, the structure may show the parent alone.
parameter: AUC(0-t) (ng·h/mL)
// note: answer is a bare numeric in ng·h/mL

// query Name the recorded AUC(0-t) of the item CCC[C@H](N[C@H]1CCc2cc(F)cc(F)c2C1)C(=O)Nc1cn(C(C)(C)CNCC(C)(C)C)cn1 [nirogacestat dihydrobromide] in your answer.
// result 1720

* * *

experiment: Pharmacokinetics of single oral doses of nirogacestat dihydrobromide; format: in vivo, human; conditions: human, in vivo, po, 150 mg, COHORT 1: 150 mg (1 × 150 mg), Period 2, read-out: Half-life, Geometric Mean (converted)
Counter-ions that a name gives are not always drawn.
parameter: half-life (h)
// note: answer is a bare numeric in h

// query Name the recorded half-life of the item CCC[C@H](N[C@H]1CCc2cc(F)cc(F)c2C1)C(=O)Nc1cn(C(C)(C)CNCC(C)(C)C)cn1 [nirogacestat dihydrobromide] in your answer.
// result 24.7

* * *

assay: Pharmacokinetics of 150 mg nirogacestat dihydrobromide twice daily at steady state exposure; format: in vivo, human; settings: human, in vivo; 150 mg (free base equivalent dose) twice daily, oral, steady state exposure
Counter-ions that a name gives are not always drawn.
parameter: Cmax (ng/mL)
// note: answer is a bare numeric in ng/mL

// query Name the recorded Cmax of the item CCC[C@H](N[C@H]1CCc2cc(F)cc(F)c2C1)C(=O)Nc1cn(C(C)(C)CNCC(C)(C)C)cn1 [nirogacestat dihydrobromide] in your answer.
// result 1250

* * *

assay: Pharmacokinetics of single oral doses of nirogacestat dihydrobromide; assay type: in vivo, human; conditions: human, in vivo, po, 50 mg, COHORT 3: 50 mg, Period 1, read-out: AUCinf, Median
Structures can show the parent of a compound that is named as a salt.
parameter: AUC(0-inf) (ng·h/mL)
// note: answer is a bare numeric in ng·h/mL

// query Name the recorded AUC(0-inf) of the item CCC[C@H](N[C@H]1CCc2cc(F)cc(F)c2C1)C(=O)Nc1cn(C(C)(C)CNCC(C)(C)C)cn1 [nirogacestat dihydrobromide] in your answer.
// result 674

* * *

assay: Pharmacokinetics of single oral doses of nirogacestat dihydrobromide; assay type: in vivo, human; conditions: human, in vivo, po, 150 mg, COHORT 1: 150 mg (3 × 50 mg), Period 1, read-out: Half-life, Geometric Mean (converted)
Structures can show the parent of a compound that is named as a salt.
parameter: half-life (h)
// note: answer is a bare numeric in h

// query Name the recorded half-life of the item CCC[C@H](N[C@H]1CCc2cc(F)cc(F)c2C1)C(=O)Nc1cn(C(C)(C)CNCC(C)(C)C)cn1 [nirogacestat dihydrobromide] in your answer.
// result 25

* * *

experiment: Pharmacokinetics of single oral doses of nirogacestat dihydrobromide; type: in vivo, human; conditions: human, in vivo, po, 150 mg, COHORT 1: 150 mg (1 × 150 mg), Period 2, read-out: Tmax, Geometric Mean
Where a name gives a salt, the structure may show the parent alone.
parameter: Tmax (h)
// note: answer is a bare numeric in h

// query Name the recorded Tmax of the item CCC[C@H](N[C@H]1CCc2cc(F)cc(F)c2C1)C(=O)Nc1cn(C(C)(C)CNCC(C)(C)C)cn1 [nirogacestat dihydrobromide] in your answer.
// result 1.2
